For each of the compounds below, state its pIC50.
- measurementNotes: Inhibition of Bacillus subtilis topoisomerase 4
Answers are plain numbers, as −log10 of the molar value.

For each of the compounds below, state pIC50.
1. CCn1cc(C(=O)O)c(=O)c2ccc(C)nc21
2. CCc1cc(Nc2cc(=O)n(CCCCN3CCN(c4c(F)cc5c(=O)c(C(=O)O)cn(C6CC6)c5c4F)CC3C)c(=O)[nH]2)ccc1C (centres undefined)
3. CC1CN(c2c(F)cc3c(=O)c(C(=O)O)cn(C4CC4)c3c2F)CCN1 (centres undefined)

[2.96, 4.36, 5.38]

* * *

- measurementNotes: Inhibition of Bacillus subtilis gyrase
reportedEndpoint: pIC50
One number for each entry, as −log10 of the molar value.

{"columns": ["molecule", "pIC50"],
 "data": [
  ["CC1CN(c2c(F)cc3c(=O)c(C(=O)O)cn(C4CC4)c3c2F)CCN1 (centres undefined)", 5.25],
  ["CCc1cc(Nc2cc(=O)n(CCCCN3CCN(c4c(F)cc5c(=O)c(C(=O)O)cn(C6CC6)c5c4F)CC3C)c(=O)[nH]2)ccc1C (centres undefined)", 4.51]
]}

We now examine a further molecule.
Kindly indicate its recorded pIC50. Item: CCn1cc(C(=O)O)c(=O)c2ccc(C)nc21 3.83
